- Test system: 186277-243-T-J2-PDC complex spheroid growth, % test/control
- procedure-details: Anticancer human tumor 186277-243-T-J2-PDC patient-derived colon adenocarcinoma cell line growth inhibition [Asc]
- condition-label: second compound 0.1 µM; first compound 0.0316 µM; stronger effect = lower value
observed-property: viability, T/C (%)
// note: answer is a bare numeric in %

Quick check: viability, T/C of COc1c(OCCCN2CCOCC2)ccc2c3n(c(=NC(=O)c4cnc(N)nc4)nc12)CCN3 + Cc1c(S(C)(=O)=O)c(-c2cc(F)cc(N3CCN(c4ccc(NS(=O)(=O)c5ccc(NC(CCN6CCC(C(=O)OCCCP(=O)(O)O)CC6)CSc6ccccc6)c(S(=O)(=O)C(F)(F)F)c5)cc4)CC3)c2)c(-c2ccc(Cl)cc2)n1C(C)C ? 53.2

Quick check: viability, T/C of Cn1ncnc1[C@H]1c2n[nH]c(=O)c3cc(F)cc(c23)N[C@@H]1c1ccc(F)cc1 + Cc1c(S(C)(=O)=O)c(-c2cc(F)cc(N3CCN(c4ccc(NS(=O)(=O)c5ccc(NC(CCN6CCC(C(=O)OCCCP(=O)(O)O)CC6)CSc6ccccc6)c(S(=O)(=O)C(F)(F)F)c5)cc4)CC3)c2)c(-c2ccc(Cl)cc2)n1C(C)C ? 108

---

- Tested on: 186277-243-T-J2-PDC complex spheroid growth, % test/control
- procedure-details: Anticancer human tumor 186277-243-T-J2-PDC cell line growth inhibition [Asc];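 note: spheroids exposed to agents for 7 days; 100% = DMSO vehicle control wells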
- condition-label: second compound 0.1 µM; first compound 0.00316 µM; stronger effect = lower value
observed-property: viability, T/C (%)
// note: answer is a bare numeric in %

Take a look at these entries with their results.
{"columns": ["compound", "observed-property", "measure-unit", "val"],
 "data": [
  ["O=C(c1ccc(F)c(F)c1Nc1ccc(I)cc1F)N1CC(O)([C@@H]2CCCCN2)C1 + CNC(C)C(=O)NC1CN(S(=O)(=O)c2cccc(S(=O)(=O)N3CCC4CCC(C(=O)NC(c5ccccc5)c5ccccc5)N4C(=O)C(NC(=O)C(C)NC)C3)c2)CCC2CCC(C(=O)NC(c3ccccc3)c3ccccc3)N2C1=O", "viability, T/C", "%", 107],
  ["CNC(C)C(=O)NC1CN(S(=O)(=O)c2cccc(S(=O)(=O)N3CCC4CCC(C(=O)NC(c5ccccc5)c5ccccc5)N4C(=O)C(NC(=O)C(C)NC)C3)c2)CCC2CCC(C(=O)NC(c3ccccc3)c3ccccc3)N2C1=O (configuration not stated) + Cc1c(S(C)(=O)=O)c(-c2cc(F)cc(N3CCN(c4ccc(NS(=O)(=O)c5ccc(NC(CCN6CCC(C(=O)OCCCP(=O)(O)O)CC6)CSc6ccccc6)c(S(=O)(=O)C(F)(F)F)c5)cc4)CC3)c2)c(-c2ccc(Cl)cc2)n1C(C)C", "viability, T/C", "%", 99.7],
  ["COc1c(OCCCN2CCOCC2)ccc2c3n(c(=NC(=O)c4cnc(N)nc4)nc12)CCN3 + Cc1c(S(C)(=O)=O)c(-c2cc(F)cc(N3CCN(c4ccc(NS(=O)(=O)c5ccc(NC(CCN6CCC(C(=O)OCCCP(=O)(O)O)CC6)CSc6ccccc6)c(S(=O)(=O)C(F)(F)F)c5)cc4)CC3)c2)c(-c2ccc(Cl)cc2)n1C(C)C", "viability, T/C", "%", 107]
]}

Quick check: viability, T/C of CCN1CCN(Cc2ccc(Nc3ncc(F)c(-c4cc(F)c5nc(C)n(C(C)C)c5c4)n3)nc2)CC1 + CNC(C)C(=O)NC1CN(S(=O)(=O)c2cccc(S(=O)(=O)N3CCC4CCC(C(=O)NC(c5ccccc5)c5ccccc5)N4C(=O)C(NC(=O)C(C)NC)C3)c2)CCC2CCC(C(=O)NC(c3ccccc3)c3ccccc3)N2C1=O ? 112

Quick check: viability, T/C of Cn1ncnc1[C@H]1c2n[nH]c(=O)c3cc(F)cc(c23)N[C@@H]1c1ccc(F)cc1 + CNC(C)C(=O)NC1CN(S(=O)(=O)c2cccc(S(=O)(=O)N3CCC4CCC(C(=O)NC(c5ccccc5)c5ccccc5)N4C(=O)C(NC(=O)C(C)NC)C3)c2)CCC2CCC(C(=O)NC(c3ccccc3)c3ccccc3)N2C1=O ? 124

Quick check: viability, T/C of NC1CCC(NC2CC2c2ccccc2)CC1 (configuration not stated) + CNC(C)C(=O)NC1CN(S(=O)(=O)c2cccc(S(=O)(=O)N3CCC4CCC(C(=O)NC(c5ccccc5)c5ccccc5)N4C(=O)C(NC(=O)C(C)NC)C3)c2)CCC2CCC(C(=O)NC(c3ccccc3)c3ccccc3)N2C1=O ? 121

Quick check: viability, T/C of CCN1CCN(Cc2ccc(Nc3ncc(F)c(-c4cc(F)c5nc(C)n(C(C)C)c5c4)n3)nc2)CC1 + Cc1c(S(C)(=O)=O)c(-c2cc(F)cc(N3CCN(c4ccc(NS(=O)(=O)c5ccc(NC(CCN6CCC(C(=O)OCCCP(=O)(O)O)CC6)CSc6ccccc6)c(S(=O)(=O)C(F)(F)F)c5)cc4)CC3)c2)c(-c2ccc(Cl)cc2)n1C(C)C ? 107
